pIC50 for ROCK2 (Homo sapiens, UniProt O75116), merged from several publications.
pIC50: −log10 of the molar value.
MEASURE_NAME: pIC50

INSERT INTO assay_data (molecule, assay_target, endpoint_result) VALUES
  ('COc1cc(F)cc(CNC(=O)c2ncn3cc(-c4cn[nH]c4F)ccc23)c1', 'ROCK2 (Homo sapiens, UniProt O75116)', '≥ 7.30'),
  ('CS(=O)(=O)c1cccc(N2CC(=O)N([C@H]3C[C@@]4(C[C@H](Oc5ncccc5C(N)=O)C4)C3)C2=O)c1 (stereo partly shown)', 'ROCK2 (Homo sapiens, UniProt O75116)', 7.89),
  ('COc1cccc(Cn2c(CN3CCC(O)C3)nn(-c3ccc(-c4cn[nH]c4)cc3)c2=O)c1 (stereo not shown)', 'ROCK2 (Homo sapiens, UniProt O75116)', '7.30 to 8.30'),
  ('[H][C@]1(c2n[nH]c(=O)c3ccccc32)C[C@]2(C[C@@H](NC(=O)c3cnc4cc(C#N)ccn34)C2)C1 (stereo partly shown)', 'ROCK2 (Homo sapiens, UniProt O75116)', '7.82 to 8.29'),
  ('COc1cc(F)cc([C@@H](CO)NC(=O)N2CCc3cc(-c4c[nH]nc4N)c(F)cc32)c1', 'ROCK2 (Homo sapiens, UniProt O75116)', '≥ 7.30'),
  ('CN(C)CCOc1ccc2c(C(=O)NC3CC4(C3)CC(c3n[nH]c(=O)c5ccccc35)C4)cnn2c1 (stereo not shown)', 'ROCK2 (Homo sapiens, UniProt O75116)', '8.30 to 8.70'),
  ('O=c1[nH]nc(-c2ccc(-n3ncn(Cc4cccc(F)c4)c3=O)cc2)c2ccccc12', 'ROCK2 (Homo sapiens, UniProt O75116)', '6.30 to 7.00'),
  ('Cc1c(-c2ccc3c(C(=O)N[C@H]4CC5(C4)C[C@H](c4n[nH]c(=O)c6ccccc64)C5)cnn3c2)cnn1C (stereo partly shown)', 'ROCK2 (Homo sapiens, UniProt O75116)', '8.70 to 9.70'),
  ('COc1cc(F)cc(CNC(=O)N2CCc3c2ccc(-c2cn[nH]c2)c3F)c1', 'ROCK2 (Homo sapiens, UniProt O75116)', '≥ 7.30'),
  ('COc1cc(N2CC(=O)N(Cc3ccccc3)C2=O)ccc1-c1cn[nH]c1', 'ROCK2 (Homo sapiens, UniProt O75116)', '6.70 to 7.70'),
  ('CCCC(=O)Nc1cccc(-c2nc(Nc3ccc4[nH]ncc4c3)c3ccc(OCCOC)cc3n2)c1', 'ROCK2 (Homo sapiens, UniProt O75116)', 7.05),
  ('COc1cc(F)cc(CN2C(=O)N(c3ccc(-c4cn[nH]c4)cc3)CC23CCN(CC(C)O)CC3)c1 (stereo not shown)', 'ROCK2 (Homo sapiens, UniProt O75116)', '> 8.52'),
  ('COc1cc(F)cc(Cn2c(CN3CCC(O)C3)nn(-c3ccc(-c4cn[nH]c4)cc3)c2=O)c1 (stereo not shown)', 'ROCK2 (Homo sapiens, UniProt O75116)', '7.30 to 8.30'),
  ('COC1(CNC(=O)c2cccc([C@@H](CO)NC(=O)c3ccc(-c4ccncc4)cc3)c2)CCCC1', 'ROCK2 (Homo sapiens, UniProt O75116)', 9.10),
  ('COC(=O)N1CCC(NC(=O)c2cccc([C@@H](CO)NC(=O)c3ccc(-c4ccncc4)cc3)c2)CC1', 'ROCK2 (Homo sapiens, UniProt O75116)', 9.03),
  ('O=C(c1ccc2nn(-c3nccc(Nc4ccc(-c5cn[nH]c5)cc4)n3)cc2c1)N1CC(F)(F)C1', 'ROCK2 (Homo sapiens, UniProt O75116)', '5.35 to 6.30');
